- Test system: A549
- measurement-protocol: NCI tumour cell line growth inhibition, 48 h
Calls of active or inactive are those of the source. Rule as the data show it: active = GI50 up to about 1.1 µM and inactive = higher.
Parameter call: string, one of active, inactive

Worked cases, answers included:
> print(dat)
                                   molecule  class.label
1  O=c1[nH]nc(Cc2ccccc2)n1/N=C/c1ccc([N+](=O)[O-])o1     inactive
2  CCCCNC(=O)NNC(=O)c1cc(/C=C/c2cccc([N+](=O)[O-])c2)ncn1     inactive
3  C[C@]12CC[C@H]3[C@@H](CC=C4C[C@@H](N5CCCC5)CC[C@@]43C)[C@@H]1C[C@H](N1CCCCC1)[C@@H]2O     inactive

Input: Hi, do you know how COc1cc2c(cc1O)CC[n+]1cc3c(OC)c(OC)ccc3cc1-2 came out in this test?
Output: inactive

Input: GET /call?item= COc1cccc(-c2cc(=O)c3ccc(C)nc3[nH]2)c1 returns the recorded outcome of this test.
Output: active

Input: I would be grateful if you could indicate the recorded call for COc1cccc2c(Nc3ccc(S(=O)(=O)Nc4ncccn4)cc3)c3ccc([N+](=O)[O-])cc3nc12 .
Output: inactive

Input: Any idea what this test logged for CCCc1nnc2sc(COc3cc(Cl)c(OCc4nn5c(CCC)nnc5s4)cc3Cl)nn12 ?
Output: inactive

Input: Tell me the assay call for COc1ccc2c(c1OC)C[C@@H]1c3c(cc4c(c3-2)OCO4)CCN1C please.
Output: inactive

Input: Hey, what did the test say about Cc1ccc(NC(=O)CC/C(CC(=O)c2ccc(Cl)cc2)=N\NC(=O)C(=O)NN)cc1C ?
Output: inactive

Input: Could you please tell me the result logged for CC1=Nc2c(ccc3c2C(=O)c2ccccc2C3=O)NC(c2cccc3c2CCC3)C1 (configuration not stated) in this assay?
Output: inactive

Input: Could you please tell me the result logged for Cc1c2cc[n+](C)cc2c(C)c2c1[nH]c1ccc(OC(C)C)cc12 in this assay?
Output: inactive

Input: Recorded test outcome, item Cc1cc(N(CCC#N)CCC#N)ccc1C(/N=N\c1ccc([N+](=O)[O-])cc1)=N\NC(=O)c1cc(Cl)ccc1O
Output: inactive

Input: Entry COc1ccc(C2Cc3cc(OC)c(OC)c(OC)c3C2=O)cc1 (configuration not stated) : call = ?
Output: inactive

Input: Assay result, entry COc1cc(/C=C2\N=C(c3ccccc3)N(c3ccc4c(c3)Sc3cc(N5C(=O)/C(=C/c6cc(OC)c(OC)c(OC)c6)N=C5c5ccccc5)ccc3N4)C2=O)cc(OC)c1OC — outcome?
Output: inactive

Input: Hi, sorry to bother you, what did the test record for CC(C)(C)[Si](C)(C)OCC1CCC(n2cnc3c(=O)[nH]cnc32)O1 (configuration not stated) ?
Output: inactive

Input: Outcome? CCN1C/C(=C\c2cc(OC)c(OC)c(OC)c2)C2=NN(c3ccccc3)C(c3cc(OC)c(OC)c(OC)c3)C2C1 (configuration not stated)
Output: inactive

Input: Could you check what this test reported for Fc1ccc2c(c1)nc1n2C(c2c(F)cccc2F)SC1 (configuration not stated) ?
Output: inactive

====

- System: NCI-H522
- measurement-protocol: NCI tumour cell line growth inhibition, 48 h
Activity calls are given as the source filed them. No stated cut-off is given here; in the data, active = GI50 up to about 1.1 µM and inactive = higher.
Entries and their GI50

Solved entries:
> print(dat)
                                   compound  measured.attribute              result
1  CCC1OC(=O)CC(O)C(C)C(OC2OC(C)CC(N(C)C)C2O)C(CC=O)CC(C)C(=O)/C=C/C2(C)OC2C1C (stereo not drawn)                GI50    15 µM (inactive)
2        Nc1nonc1-c1noc(-c2nonc2N)[n+]1[O-]                GI50  13.1 µM (inactive)

Read the next record carefully.
Input: Dear colleague, I am looking for the recorded GI50 of the following compound: COc1ccc(-c2cc(O)c3ccc(C)nc3n2)cc1
Output: > 100 µM (inactive)

====

- System: RPMI-8226
- measurement-protocol: NCI tumour cell line growth inhibition, 48 h
The source made the active and inactive calls. No stated cut-off is given here; in the data, active = GI50 up to about 1.1 µM and inactive = higher.
measured-attribute: GI50

Solved cases (3 shown):
> print(dat)
                                   compound  measured.attribute              result
1  C[C@]12CC[C@H]3[C@@H](CC=C4C[C@@H](N5CCCC5)CC[C@@]43C)[C@@H]1C[C@H](N1CCCCC1)[C@@H]2O                GI50  26.8 µM (inactive)
2  C=CCOc1cc2c(cc1C(C)c1ccc(OC)cc1)OCO2 (centres undefined)                GI50    0.78 µM (active)
3  c1cc(-c2sc(-c3ccncc3)c(-c3ccncc3)c2-c2ccncc2)ccn1                GI50  33.9 µM (inactive)

Input: For the compound COC(=O)c1ccc2c(c1)sc1nc(-c3ccc(OC)cc3)cn12 , what GI50 is on record?
Output: 32.4 µM (inactive)

====

Entries and their GI50
- Test system: DU-145
- measurement-protocol: NCI tumour cell line growth inhibition, 48 h
Calls of active or inactive are those of the source. Rule as the data show it: active = GI50 up to about 1.1 µM and inactive = higher.

> print(dat)
                                   compound  tested.target               result
1  Cc1cc(N(CCC#N)CCC#N)ccc1C(/N=N\c1ccc([N+](=O)[O-])cc1)=N\NC(=O)c1cc(Cl)ccc1O         DU-145   46.3 µM (inactive)
2  C=C1c2nc3ccccc3n2C=C(c2ccccc2)N1c1ccc(C)cc1         DU-145  > 100 µM (inactive)
3              O=C1c2ccccc2C(=O)N1NC1=NCCN1         DU-145  > 100 µM (inactive)
4  c1cc(-c2ccc(-c3ccc(-c4ccc(-c5cccc6nsnc56)[nH]4)c4nsnc34)[nH]2)c2nsnc2c1         DU-145  > 100 µM (inactive)
5  C=C/C(C)=C\CC1[C@](C)(O)CC[C@H]2C(C)(C)C(O)CC[C@]12C (stereo not given in full)         DU-145  > 100 µM (inactive)
6  Cc1nn(C(=O)c2ccncc2)c2c1C(c1ccc([N+](=O)[O-])cc1)SC(=N)N2 (stereo not given)         DU-145  > 100 µM (inactive)

Input: For CCOc1ccc(NCc2cc(OC)c(OC)c(OC)c2)cc1 , what is its reported GI50?
Output: 2.57 µM (inactive)

Input: Would you kindly share the measured GI50 for CC(=O)OCCCCn1nncc1Cn1ccc(=O)n(Cc2cnnn2CCCCOC(C)=O)c1=O ?
Output: > 100 µM (inactive)

Input: Given the entry COC(=O)C1CC(C=[N+](C)C)=C(SC)N1C(=O)OCc1ccccc1 (stereo not given) , report its measured GI50.
Output: > 100 µM (inactive)

Input: What GI50 value was documented for this compound, Cn1c(C(C)(C)OC(=O)Oc2ccccc2)cnc1[N+](=O)[O-] ?
Output: > 100 µM (inactive)

====

- Tested on: UO-31
- measurement-protocol: NCI tumour cell line growth inhibition, 48 h
Calls of active or inactive are those of the source. Cut-off read from the data, not from the text of the source: active = GI50 up to about 1.1 µM and inactive = higher.
Below: a set of entries, each annotated with reported GI50.

Input: Recorded GI50 for Cc1nn(C(=O)c2ccncc2)c2c1C(c1ccc([N+](=O)[O-])cc1)SC(=N)N2 (stereo not drawn) , please?
Output: > 100 µM (inactive)

Input: Recorded GI50 for COc1ccc(S(=O)(=O)N(CC(=O)O)c2ccccc2)cc1 , please?
Output: > 100 µM (inactive)

Input: Fill in the blank: the reported GI50 of CCOC(=O)c1cc(-c2ccc(Cl)cc2)c([N+](=O)[O-])n1C is ____.
Output: 5.48 µM (inactive)

====

- Tested on: SR
- measurement-protocol: NCI tumour cell line growth inhibition, 48 h
Activity calls are given as the source filed them. Cut-off read from the data, not from the text of the source: active = GI50 up to about 1.1 µM and inactive = higher.
measured-attribute: GI50

Worked cases, answers included:
> print(dat)
                                    molecule  tested.target               result
 1  COc1ccc(OC)c([N+](=O)[O-])c1-c1nc2sc(Cl)cn2c1/C=N/N=C(N)N             SR   14.2 µM (inactive)
 2  CCOC(=O)Oc1cc2ccsc2c2c1c1ccccc1n2C(=O)OCC             SR  > 100 µM (inactive)
 3  C=CCNC1=C2C[C@@H](C)C[C@@H](OC)[C@@H](OC(=O)CCCN)[C@H](C)/C=C(\C)[C@@H](OC(N)=O)[C@H](OC)/C=C\C=C(/C)C(=O)NC(=CC1=O)C2=O             SR   6.59 µM (inactive)
 4  Cc1cc(N(CCC#N)CCC#N)ccc1C(/N=N\c1ccc([N+](=O)[O-])cc1)=N\NC(=O)c1cc(Cl)ccc1O             SR   24.3 µM (inactive)
 5  C[C@]12CC[C@H]3[C@@H](CC=C4C[C@@H](N5CCCC5)CC[C@@]43C)[C@@H]1C[C@H](N1CCCCC1)[C@@H]2O             SR   11.4 µM (inactive)
 6          CCOC(=O)C(C(=O)c1ccccc1)=C1NCCN1             SR  > 100 µM (inactive)
 7      CCOC(=O)/C(C#N)=C/N(CC)/N=C/c1ccccc1             SR  > 100 µM (inactive)
 8  CC(=O)[C@@H](C)C(=O)N1C(=O)OC[C@@]12[C@@H]1CC[C@@H](C1)C2(C)C             SR   78.7 µM (inactive)
 9  O=C(CC(Cc1ccccc1)c1ccc(Oc2ccccc2)cc1)Nc1cccc(Cl)c1 (stereo not given)             SR   4.94 µM (inactive)
10  COc1ccc2c(c1OC)C(=O)O[C@@H]2[C@H]1c2c(cc3c(c2OC)OCO3)CCN1C [NOSCAPINE]             SR   38.8 µM (inactive)

Input: # input molecule: CN(C)CCCOCCn1c2c(c3ccccc31)CCCC2 ; wanted: its GI50
Output: 18.1 µM (inactive)

Input: GI50 for Cc1cc2nc(N)n[n+]([O-])c2cc1C ?
Output: > 100 µM (inactive)

Input: Can you look up the measured GI50 of Clc1cc(Cc2cc(Cl)c(Cl)c3c2OCOC3)c2c(c1Cl)COCO2 for me?
Output: 55.2 µM (inactive)

Input: Field request: GI50 | item: CCc1c(O)c2c(c(O)c1C(C)=O)C(=O)c1c(cc(O)c(C(=O)O)c1C(=O)O)C2=O
Output: > 100 µM (inactive)

Input: I have this molecule here, Nc1nc(SCc2ccccc2Cl)cc(C(=O)O)n1 , and I need its recorded GI50.
Output: 39 µM (inactive)
